Collected sfGFP reporter fluorescence values appear next to each entry.
B1: library; numbered along this chain (parent)
chain: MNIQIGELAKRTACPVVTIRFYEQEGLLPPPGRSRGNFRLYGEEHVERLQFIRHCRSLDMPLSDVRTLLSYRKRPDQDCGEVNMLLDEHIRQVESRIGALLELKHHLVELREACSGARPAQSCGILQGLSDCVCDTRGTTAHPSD

# Variants of: B1
# Protocol notes: sfGFP reporter fluorescence (15 h) (µM FITC); higher = stronger transcriptional activation
# Test conditions: library round: Round 0; ligand: 30 µM Zn
Lab note: record just the number, no unit beside it.

Here is how some variants turned out for sfGFP reporter fluorescence.
Using the record for `I90M` , state its measured sfGFP reporter fluorescence.
0.384

Using the record for `V16I` , state its measured sfGFP reporter fluorescence.
0.981

Continuing:
Using the record for `C123H` , state its measured sfGFP reporter fluorescence.
0.0561

Using the record for `D64N` , state its measured sfGFP reporter fluorescence.
1.64

Using the record for `T67A` , state its measured sfGFP reporter fluorescence.
0.381

Using the record for `N83D` , state its measured sfGFP reporter fluorescence.
1

Using the record for `L28Y` , state its measured sfGFP reporter fluorescence.
0.12

Using the record for `G6T` , state its measured sfGFP reporter fluorescence.
0.0799

Using the record for `C114A` , state its measured sfGFP reporter fluorescence.
0.0542

Using the record for `N83T` , state its measured sfGFP reporter fluorescence.
0.226
